Where do the numbers come from? From ChEMBL document CHEMBL1144062.

Biological target: Tyrosine-protein kinase Lck (Homo sapiens, UniProt P06239)
Sequence (P06239 whole entry): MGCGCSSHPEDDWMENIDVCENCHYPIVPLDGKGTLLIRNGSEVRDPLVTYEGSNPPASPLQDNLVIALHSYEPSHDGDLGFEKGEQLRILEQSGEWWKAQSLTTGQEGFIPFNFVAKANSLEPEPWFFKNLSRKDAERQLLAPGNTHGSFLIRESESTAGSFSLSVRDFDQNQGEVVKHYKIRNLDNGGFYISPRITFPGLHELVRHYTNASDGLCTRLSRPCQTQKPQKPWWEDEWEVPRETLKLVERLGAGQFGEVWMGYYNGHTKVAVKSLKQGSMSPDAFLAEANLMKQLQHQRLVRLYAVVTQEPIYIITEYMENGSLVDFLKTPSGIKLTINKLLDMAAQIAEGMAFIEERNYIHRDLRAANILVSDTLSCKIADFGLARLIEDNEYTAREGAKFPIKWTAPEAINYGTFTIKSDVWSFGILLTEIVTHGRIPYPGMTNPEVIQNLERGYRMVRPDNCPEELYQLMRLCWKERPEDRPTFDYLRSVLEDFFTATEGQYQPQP
measured.parameter: IC50 (µM)
Give bare numbers, in µM.

# return recorded IC50 for entry COc1cc(C)c(O)c(C[C@]2(C)[C@H]3CCC(=C(C)C)[C@@H](CCC(=O)O)[C@]3(C)CC[C@H]2C)c1 208
